procedure details: Plasma concentration versus time of Compound I and metabolite Compound III in patients dosed QD or BID with Form B of Compound II plus fulvestrant
Assay type: in vivo, human
condition summary: human, plasma, oral, 100 mg, Cohort 6, 100 mg BID of Form B, Day 29, 6.0 h; read-out: Compound I Concentration, Mean
quantity kind: concentration at 6 h

- CC(C)N1CCN(c2ccc(Nc3ncc4cc5n(c4n3)C3(CCCCC3)CNC5=O)nc2)CC1 [Compound I]: 8.82 ng/mL

###

procedure details: Noncompartmental pharmacokinetic parameters (Cmax, Tmax, AUC, Racc) in QD and BID cohorts of Form B
Format: in vivo, human
condition summary: human, plasma, oral, 300 mg, Compound I; 300 mg QD of Form B; Cohort 2; Day 29; read-out: AUClast (Mean)
quantity kind: AUC(0-t) (ng·h/mL)

* CC(C)N1CCN(c2ccc(Nc3ncc4cc5n(c4n3)C3(CCCCC3)CNC5=O)nc2)CC1 [Compound I] | 592

###

procedure details: Plasma concentration versus time of Compound I and metabolite Compound III in patients dosed QD or BID with Form B of Compound II plus fulvestrant
Assay type: in vivo, human
condition summary: human, plasma, oral, 650 mg, Cohort 5, 650 mg QD of Form B, Day 29, 2.0 h; read-out: Compound I Concentration, Min
quantity kind: concentration at 2 h (ng/mL)

• CC(C)N1CCN(c2ccc(Nc3ncc4cc5n(c4n3)C3(CCCCC3)CNC5=O)nc2)CC1 [Compound I] = 16.8

###

procedure details: Noncompartmental pharmacokinetic parameters (Cmax, Tmax, AUC, Racc) in QD and BID cohorts of Form B
Format: in vivo, human
condition summary: human, plasma, oral, 200 mg, Compound III; 200 mg BID of Form B; Cohort 8; Day 1; read-out: Cmax (Median)
quantity kind: Cmax

• O=C1NCC2(CCCCC2)n2c1cc1cnc(Nc3ccc(N4CCNCC4)cn3)nc12 [Compound III] = 3 ng/mL

###

procedure details: Plasma concentration versus time of Compound I and metabolite Compound III in patients dosed QD or BID with Form B of Compound II plus fulvestrant
Format: in vivo, human
condition summary: human, plasma, oral, 200 mg, 200 mg QD of Form B, Day 29, 3.0 h, Median; read-out: Compound I Concentration
quantity kind: concentration at 3 h (ng/mL)

* CC(C)N1CCN(c2ccc(Nc3ncc4cc5n(c4n3)C3(CCCCC3)CNC5=O)nc2)CC1 | 11.8

###

procedure details: Plasma concentration versus time of Compound I and metabolite Compound III in patients dosed QD or BID with Form B of Compound II plus fulvestrant
Format: in vivo, human
condition summary: human, plasma, oral, 100 mg, 100 mg BID of Form B, Day 1, 8.0 h, Mean; read-out: Compound III Concentration
quantity kind: concentration at 8 h (ng/mL)

• O=C1NCC2(CCCCC2)n2c1cc1cnc(Nc3ccc(N4CCNCC4)cn3)nc12 [Compound III] = 0.219

###

procedure details: Noncompartmental pharmacokinetic parameters (Cmax, Tmax, AUC, Racc) in QD and BID cohorts of Form B
Type: in vivo, human
condition summary: human, plasma, oral, 200 mg, Compound I; 200 mg QD of Form B; Cohort 1; Day 29; read-out: Tmax (Mean)
quantity kind: Tmax (h)

* CC(C)N1CCN(c2ccc(Nc3ncc4cc5n(c4n3)C3(CCCCC3)CNC5=O)nc2)CC1 | 4.2

###

procedure details: Plasma concentration versus time of Compound I and metabolite Compound III in patients dosed QD or BID with Form B of Compound II plus fulvestrant
Assay type: in vivo, human
condition summary: human, plasma, oral, 400 mg, 400 mg QD of Form B, Day 29, 8.0 h, Median; read-out: Compound I Concentration
quantity kind: concentration at 8 h (ng/mL)

• CC(C)N1CCN(c2ccc(Nc3ncc4cc5n(c4n3)C3(CCCCC3)CNC5=O)nc2)CC1 = 20.5

###

procedure details: Plasma concentration versus time of Compound I and metabolite Compound III in patients dosed QD or BID with Form B of Compound II plus fulvestrant
Type: in vivo, human
condition summary: human, plasma, oral, 200 mg, Cohort 8, 200 mg BID of Form B, Day 29, 12.0 h; read-out: Compound I Concentration, Max
Description: Patients were enrolled into 1 of 2 parallel, independently operating, dose-escalation dosing cohorts with Form B of Compound II administered continuously either once daily (QD) or twice daily (BID) with food with fixed-dose fulvestrant (intramuscularly every 14 days for the first three injections and then every 28 days). Pre- or perimenopausal patients also received goserelin for the duration of study treatment. […]
quantity kind: concentration at 12 h

* CC(C)N1CCN(c2ccc(Nc3ncc4cc5n(c4n3)C3(CCCCC3)CNC5=O)nc2)CC1 | 40.8 ng/mL

###

procedure details: Plasma concentration versus time of Compound I and metabolite Compound III in patients dosed QD or BID with Form B of Compound II plus fulvestrant
Type: in vivo, human
condition summary: human, plasma, oral, 100 mg, Cohort 6, 100 mg BID of Form B, Day 8; read-out: Trough Compound I Concentration, Min
quantity kind: concentration at 8 day (ng/mL)

• CC(C)N1CCN(c2ccc(Nc3ncc4cc5n(c4n3)C3(CCCCC3)CNC5=O)nc2)CC1 [Compound I] = 3.29

###

procedure details: Plasma concentration versus time of Compound I and metabolite Compound III in patients dosed QD or BID with Form B of Compound II plus fulvestrant
Assay type: in vivo, human
condition summary: human, plasma, oral, 150 mg, Cohort 7, 150 mg BID of Form B, Day 29, 1.0 h; read-out: Compound I Concentration, Median
quantity kind: concentration at 1 h (ng/mL)

* CC(C)N1CCN(c2ccc(Nc3ncc4cc5n(c4n3)C3(CCCCC3)CNC5=O)nc2)CC1 | 28.7

###

procedure details: Steady-state AUC0-24,ss, (AUC0-24,ss)/dose, half-life and time to steady state: Compound I versus palbociclib, ribociclib, abemaciclib
Format: in vivo, human
condition summary: 200 mg QD of Form B of Compound II, Day 29
Excerpt: The time to reach steady state was defined as five half-lives (97% steady state achieved). […] The AUC data are presented as the arithmetic mean. […] The AUC data are presented as the geometric mean. The steady-state AUC0-24 for various BID doses of abemaciclib provided in Table 89 was obtained from the above cited prior published studies. The AUC data are presented as the geometric mean.
quantity kind: (Mean AUC0-24,ss)/Dose (mg)

* CC(C)N1CCN(c2ccc(Nc3ncc4cc5n(c4n3)C3(CCCCC3)CNC5=O)nc2)CC1 [Compound I] | 1.15 ng·h/mL/mg

###

procedure details: Plasma concentration versus time of Compound I and metabolite Compound III in patients dosed QD or BID with Form B of Compound II plus fulvestrant
Type: in vivo, human
condition summary: human, plasma, oral, 650 mg, Cohort 5, 650 mg QD of Form B, Day 29, 6.0 h; read-out: Compound I Concentration, Median
quantity kind: concentration at 6 h (ng/mL)

* CC(C)N1CCN(c2ccc(Nc3ncc4cc5n(c4n3)C3(CCCCC3)CNC5=O)nc2)CC1 | 58.8

###

procedure details: Noncompartmental pharmacokinetic parameters (Cmax, Tmax, AUC, Racc) in QD and BID cohorts of Form B
Type: in vivo, human
condition summary: human, plasma, oral, 200 mg, Compound I; 200 mg BID of Form B; Cohort 8; Day 29; read-out: Tmax (Mean)
quantity kind: Tmax (h)

* CC(C)N1CCN(c2ccc(Nc3ncc4cc5n(c4n3)C3(CCCCC3)CNC5=O)nc2)CC1 | 6.67

###

procedure details: Plasma concentration versus time of Compound I and metabolite Compound III in patients dosed QD or BID with Form B of Compound II plus fulvestrant
Assay type: in vivo, human
condition summary: human, plasma, oral, 300 mg, 300 mg QD of Form B, Day 29, 12.0 h, Median; read-out: Compound I Concentration
quantity kind: concentration at 12 h (ng/mL)

* CC(C)N1CCN(c2ccc(Nc3ncc4cc5n(c4n3)C3(CCCCC3)CNC5=O)nc2)CC1 | 20.5

###

procedure details: Plasma concentration versus time of Compound I and metabolite Compound III in patients dosed QD or BID with Form B of Compound II plus fulvestrant
Type: in vivo, human
condition summary: human, plasma, oral, 500 mg, Cohort 4, 500 mg QD of Form B, Day 22; read-out: Trough Compound III Concentration, Median
quantity kind: concentration at 22 day (ng/mL)

- O=C1NCC2(CCCCC2)n2c1cc1cnc(Nc3ccc(N4CCNCC4)cn3)nc12: 1.58

###

procedure details: Plasma concentration versus time of Compound I and metabolite Compound III in patients dosed QD or BID with Form B of Compound II plus fulvestrant
Assay type: in vivo, human
condition summary: human, plasma, oral, 650 mg, 650 mg QD of Form B, Day 1, 1.0 h, Median; read-out: Compound I Concentration
quantity kind: concentration at 1 h

* CC(C)N1CCN(c2ccc(Nc3ncc4cc5n(c4n3)C3(CCCCC3)CNC5=O)nc2)CC1 [Compound I] | 9.68 ng/mL
